tested on: SH-SY5Y; assay: Neuroprotection against H2O2-induced cell death in human SH-SY5Y cells at 100 uM preincubated for 6 hrs followed by H2O2 addition and measured after 24 hrs by MTT assay relative to control; format: functional
Test readout: Activity

Example cases with answers are listed next.
COC(=O)[C@H](Cc1ccc(O)cc1)NC(=O)/C=C/c1ccc(O)c(O)c1 ... >50%
COC(=O)[C@H](Cc1ccc(O)c(O)c1)NC(=O)/C=C/c1cccc(O)c1 ... >50%
COC(=O)[C@H](Cc1ccc(O)c(O)c1)NC(=O)/C=C/c1ccccc1 [N-CINNAMOYL-DOPA METHYL ESTER] ... >50%

// query Activity value for entry COC(=O)[C@H](Cc1ccc(O)cc1)NC(=O)/C=C/c1ccc(O)cc1
<50%

Another molecule to check: COC(=O)[C@H](Cc1ccc(O)c(O)c1)NC(=O)/C=C/c1ccc(O)cc1
>50%

====

experiment: AUC (0 to infinity) in Sprague-Dawley rat at 5 mg/kg, iv by LC-MS/MS analysis; format: ADME, organism-based; set-up: dose 5 mg/kg, route intravenous, time infinity; conditions: in vivo
Test readout: AUC(0-inf) (ng·h/mL)
Answer in ng·h/mL, number only, no unit symbol.

// query AUC(0-inf) value for entry COC(=O)[C@H](Cc1ccccc1)NC(=O)/C=C/c1ccc(O)c(O)c1
3270

====

test: MRT in Sprague-Dawley rat at 5 mg/kg, iv by LC-MS/MS analysis; format: ADME, organism-based; conditions: in vivo
Test readout: MRT (h)
Answer in h, number only, no unit symbol.

// query MRT value for entry COC(=O)[C@H](Cc1ccccc1)NC(=O)/C=C/c1ccc(O)c(O)c1 [N-CAFFEOYL-PHENYLALANINE METHYL ESTER]
1.45

====

assay: Clearance in Sprague-Dawley rat at 5 mg/kg, iv by LC-MS/MS analysis; assay type: ADME, organism-based; details: in vivo
Test readout: clearance (mL/min/kg)
Answer in mL/min/kg, number only, no unit symbol.

// query clearance value for entry COC(=O)[C@H](Cc1ccccc1)NC(=O)/C=C/c1ccc(O)c(O)c1
25.5

====

assay: Half life in Sprague-Dawley rat at 25 mg/kg, po by LC-MS/MS analysis; type: ADME, organism-based; details: in vivo
Test readout: half-life (h)
Answer in h, number only, no unit symbol.

// query half-life value for entry COC(=O)[C@H](Cc1ccccc1)NC(=O)/C=C/c1ccc(O)c(O)c1
2.7

====

tested on: SH-SY5Y; assay: Neuroprotection against H2O2-induced cell death in human SH-SY5Y cells at 100 uM preincubated for 6 hrs followed by H2O2 addition and measured after 24 hrs by MTT assay relative to control; assay type: functional
A collection of compounds and their measured Activity

Example cases with answers are listed next.
COC(=O)[C@H](Cc1ccccc1)NC(=O)/C=C/c1ccc(O)c(OC)c1 ... <50%
COC(=O)[C@H](Cc1ccccc1)NC(=O)/C=C/c1ccc(O)cc1 ... <50%
COC(=O)[C@H](Cc1ccccc1)NC(=O)/C=C/c1cccc(O)c1 ... <50%

Find Activity (SH-SY5Y) for the entry COC(=O)[C@H](Cc1ccc(O)cc1)NC(=O)/C=C/c1ccccc1
<50%

Another compound to check: COC(=O)[C@H](Cc1ccc(O)c(O)c1)NC(=O)/C=C/c1ccc(O)c(O)c1 [N-CAFFEOYL-DOPA METHYL ESTER]
>50%

Another compound to check: COC(=O)[C@H](Cc1ccc(O)cc1)NC(=O)/C=C/c1cccc(OC)c1
<50%
